// data source = PubChem BioAssay (NCI)

# method-description: NCI Yeast Anticancer Drug Screen. Data for the bub3 strain (AID 167)
# experimental-parameters: S. cerevisiae bub3 mutant strain, at 100.0 µM, stronger effect = higher value
About 79,000 compounds went through this panel and 15% of them were active in at least one assay; those are over-represented in the sample as a whole.
Entry flag: true (1) if growth inhibition reaches 80%; false (0) if it does not.

Request: Kindly determine if growth inhibition recorded for O=C1C(Cl)=C(Cl)C(Cl)(Cl)C(Cl)C1(Cl)Cl (stereo unspecified) is above or exactly 80%.
Response: true (1)

Request: Kindly determine if growth inhibition recorded for CN(C)c1ccc(N=Nc2ccccn2)cc1 is above or exactly 80%.
Response: true (1)

* * *

# method-description: NCI Yeast Anticancer Drug Screen. Data for the bub3 strain (AID 167)
# experimental-parameters: S. cerevisiae bub3 mutant strain, at 5.0 µM (retest, dose inferred, filed as 0.5), stronger effect = higher value
# Procedure: Growth inhibition of yeast strains with defined genetic alterations is measured as a screen for potential anti-cancer activity. Selected strains with alterations in DNA damage repair or cell cycle control were exposed to compounds and growth inhibition was measured relative to vehicle treated controls. The strain used in this assay is bub3
The panel holds about 79,000 compounds, 15% with a hit somewhere; the sample as a whole holds those more often.
outcome-measure: growth inhibition (%)
One number for each entry, in %.

O=[N+]([O-])/C(C(Cl)=C(Cl)Cl)=C1/OCCS1    -12

// for each compound in input: emit growth inhibition
1. O=C(O)c1[nH]c(=O)c2ccccc2c1Nc1ccccc1
2. Clc1c(Cl)c(Cl)c2c(nnn2C2CCCO2)c1Cl (stereo not drawn)
3. CCCCCCCCCCCCCC(=O)OC(C)CCC1CCCO1 (stereo not drawn)
4. Clc1cc(Cc2ccc(N=C/C=C/c3ccccc3)c(Cl)c2)ccc1N=C/C=C\c1ccccc1
5. COc1ccc(C(C#N)=C2C=CC(=NO)C=C2)cc1

Response:
1: -4; 2: 18; 3: 31; 4: 30; 5: 24

// for each compound in input: emit growth inhibition
1. CCOc1ccc(C(=O)CCC(=O)O)c(C)c1
2. CNc1ccc(Cc2c[nH]c3ccccc23)cc1

Response:
-17
15

* * *

# method-description: NCI Yeast Anticancer Drug Screen. Data for the rad50 strain (AID 155);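 also: 0% = growth of vehicle-only cultures of the same strain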
# experimental-parameters: S. cerevisiae rad50 strain growth inhibition; at 33.0 µM; stronger effect = higher value
Compounds without any hit were thinned out: in the full panel of roughly 79,000, 15% have a hit. Calls of active or inactive are those of the source. Cut-off read from the data, not from the text of the source: active = growth inhibition above about 70%; inactive = the rest. Residues, ends and D or L forms follow the SMILES beside them. *: point of attachment. CH2Cl = ClC*
Please go through the items and note down their growth inhibition.

Cc1ccc(N=Nc2ccc(O)c(C)c2)cc1    98% (active)
CCN(CC)CC(O)c1cc(-c2ccc(Cl)cc2)nc2c(-c3ccccc3)cccc12 (stereo not given)    98% (active)
Cc1ccc(CNc2ccc(Br)cc2)cc1    67% (inactive)
CCC(NC(C)c1ccccc1)C(=O)c1ccc(OCc2ccccc2)c(OCc2ccccc2)c1 (stereo not given)    14% (inactive)

// for each compound in input: emit growth inhibition
1. O=C1c2ccccc2CCC1(Br)Br
2. O=C(NCCCCCN1CCC2(CCCCC2)CC1)C(C1CCCCC1)C1CCCCC1
3. CC(=O)NC(CC(C)C)C(=O)NC(Cc1ccccc1)C(=O)CCl (stereo not drawn) (Ac-Leu-Phe-CH2Cl; configuration not given here)
4. CC(C)(C)c1ccc(O)c(C(c2ccc([N+](=O)[O-])cc2)c2cc(C(C)(C)C)ccc2O)c1
5. Cc1ccc(Nc2n[nH]c(=S)s2)cc1

Response:
["99% (active)", "97% (active)", "25% (inactive)", "85% (active)", "72% (active)"]

growth inhibition reported for this compound Cc1c2cc[n+](CCN3CCCCC3)cc2c(C)c2c1[nH]c1ccc(O)cc12 : 91% (active)

* * *

Please go through the items and note down their growth inhibition.
# method-description: NCI Yeast Anticancer Drug Screen. Data for the mlh1 rad18 strain (AID 175)
# experimental-parameters: S. cerevisiae mlh1 rad18 strain growth inhibition; at 50.0 µM (retest, dose inferred, filed as 5.0); stronger effect = higher value
# Protocol: Growth inhibition of yeast strains with defined genetic alterations is measured as a screen for potential anti-cancer activity. Selected strains with alterations in DNA damage repair or cell cycle control were exposed to compounds and growth inhibition was measured relative to vehicle treated controls. The strain used in this assay is mlh1 rad18
This is part of a sample that, as a whole, favours compounds with a hit. Of some 79,000 tested, about 15% had one in any assay. Calls of active or inactive are those of the source. No stated cut-off is given here; in the data, active means growth inhibition above about 70%; inactive means the rest.

CC(=O)C1(O)Cc2c(O)c3c(c(O)c2C(OC2CC(N)C(O)C(C)O2)C1)C(=O)c1ccccc1C3=O (configuration not stated)    54% (inactive)

// for each compound in input: emit growth inhibition
1. CN(N=O)c1ccc(/C=C/c2ccnc3ccccc23)cc1
2. COc1ccc(/C(C#N)=C/c2ccc(OC)c(OC)c2)cc1
3. CCn1ncc(N=O)c1N
4. O=S1(=O)c2ccccc2N=C(c2ccccc2Cl)CC1c1ccc(F)cc1 (configuration not stated)

Response:
["68% (inactive)", "81% (active)", "73% (active)", "81% (active)"]

* * *

Please go through the items and note down their growth inhibition.
# method-description: NCI Yeast Anticancer Drug Screen. Data for the cln2 rad14 strain (AID 165);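 also: 0% = growth equal to vehicle treated cultures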
# experimental-parameters: S. cerevisiae cln2 rad14 strain, at 5.0 µM (retest, dose inferred, filed as 0.5), stronger effect = higher value
The panel holds about 79,000 compounds, 15% with a hit somewhere; the sample as a whole holds those more often. Activity calls are given as the source filed them. Cut-off read from the data, not from the text of the source: active = growth inhibition above about 70%; inactive = the rest.

CN(N=O)c1ccc(/C=C/c2ccnc3ccccc23)cc1    -10% (inactive)

// for each molecule in input: emit growth inhibition
1. C=Cc1cnc([N+](=O)[O-])n1C
2. Cc1cc(N=C2C=CC(=[N+](C)C)C=C2)c(N)cc1N
3. OC(CN1CCCCC1)c1cc(Cl)c(Cl)c(Cl)c1 (stereo unspecified)
4. CCOC(=O)C1=C(C)NC(C)=C(C(=O)OCC)C1c1ccccc1Cl
5. O=C(/C=C\c1ccc([N+](=O)[O-])o1)Nc1ccc(Cl)cc1

Response:
["39% (inactive)", "59% (inactive)", "8% (inactive)", "43% (inactive)", "14% (inactive)"]

* * *

# method-description: NCI Yeast Anticancer Drug Screen. Data for the CLN2oe strain (AID 163);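 also: 0% = growth of vehicle-only control cultures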
# experimental-parameters: S. cerevisiae CLN2oe strain, at 1.2 µM, stronger effect = higher value
About 79,000 compounds went through this panel and 15% of them were active in at least one assay; those are over-represented in the sample as a whole.
outcome-measure: growth inhibition (%)
Answers are plain numbers, in %.

Cc1ccc2occ/c(=N\Nc3ccccc3)c2c1    -9
CCn1ncc(N=O)c1N    -6
c1ccc2c(c1)ccc1c3ccncc3ccc21    0
O=C(O)c1ccccc1.[Ag]    50
O=Cc1coc2ccccc2c1=O    -1
COC(=O)CSc1nnc(CSc2ccc(Cl)cc2)n1-c1ccccc1    -2
CCC(=O)N(c1ccccc1)C(C)CN1CCC(O)(c2cccc(C(F)(F)F)c2)CC1 (centres undefined)    2
Cc1cc(Cl)ccc1NC(=O)/C(Cl)=C1/Sc2ccccc2NC1=O    -8
CC1(C)C(C=O)=CCC1CC(N)=O (centres undefined)    -5
CC1OC(OC2CCCc3c(O)c4c(c(O)c32)C(=O)c2ccccc2C4=O)CC(N)C1O (centres undefined)    2

// for each compound in input: emit growth inhibition
1. Cc1cc(O)c2c(c1)C(=O)C=C(Br)C2=O
2. S=P(N1CC1)(N1CC1)N1CC1
3. On1cnc(=S)c2[nH]cnc21
4. Cc1ccc(I)cc1N=C=S

Response:
1: 7; 2: -4; 3: 23; 4: -2

* * *

Please go through the items and note down their growth inhibition.
# method-description: NCI Yeast Anticancer Drug Screen. Data for the wt1 strain (AID 149);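 also: 0% = growth of vehicle-treated wt1 cultures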
# experimental-parameters: S. cerevisiae wt1 strain (SPY 50644) growth inhibition; at 3.7 µM; stronger effect = higher value
# Description: Growth inhibition of yeast strains with defined genetic alterations is measured as a screen for potential anti-cancer activity. Selected strains with alterations in DNA damage repair or cell cycle control were exposed to compounds and growth inhibition was measured relative to vehicle treated controls. The strain used in this assay is wt1
Compounds without any hit were thinned out: in the full panel of roughly 79,000, 15% have a hit. Activity calls are given as the source filed them. Rule as the data show it: active = growth inhibition above about 70%; inactive = the rest.

CN(C)c1ccc(N=Nc2ccccn2)cc1    31% (inactive)
O=c1[nH]cc(/C=N\Nc2ccccc2)c(=O)[nH]1    6% (inactive)
CC(=O)C1=C(O)C2(C)c3c(O)c(C)c(O)c(C(C)=O)c3OC2(Sc2ccccc2)CC1=O (centres undefined)    51% (inactive)
CC[C@@]1(OC(=O)CN(C)C)C(=O)OCc2c1cc1n(c2=O)Cc2cc3c(N)cccc3nc2-1    -2% (inactive)
c1ccc2c(c1)Cn1c-2nc2ccccc21    -21% (inactive)

// for each molecule in input: emit growth inhibition
1. CC(=O)C1=C(C)O/C(=C/c2cccc(Cl)c2)C1=O
2. COc1ccc(N)c2c1C(=O)c1ccccc1C2=O
3. CCN1/C(=C/c2ccc3ccccc3[n+]2CC)C=Cc2ccccc21
4. NP1(Oc2ccc(F)cc2)=NP(N)(Oc2ccc(F)cc2)=NP(Oc2ccc(F)cc2)(Oc2ccc(F)cc2)=N1 (centres undefined)
5. NCc1c(O)ccc2ccccc12
6. Nc1ccc(CCl)cc1Cc1c(O)ccc2ccccc12
7. O=C(NC(=S)Nc1ccccn1)c1ccccc1
8. C=C(CCCO)[C@@H]1CC[C@@](C)(O)[C@H]1C

Response:
["2% (inactive)", "11% (inactive)", "-12% (inactive)", "0% (inactive)", "11% (inactive)", "6% (inactive)", "-36% (inactive)", "-33% (inactive)"]
